molecular target: Pseudomonas aeruginosa LpxC enzyme (Pseudomonas aeruginosa); construct: made in house; host or cells: E. coli; assay: IC50 assay, LpxC enzyme from P. aeruginosa; type: biochemical; details: 0.5 nM enzyme, 25° C., pH 8.0, 20 min; ** = average of 2-8 assays
Sequence (P47205 whole entry): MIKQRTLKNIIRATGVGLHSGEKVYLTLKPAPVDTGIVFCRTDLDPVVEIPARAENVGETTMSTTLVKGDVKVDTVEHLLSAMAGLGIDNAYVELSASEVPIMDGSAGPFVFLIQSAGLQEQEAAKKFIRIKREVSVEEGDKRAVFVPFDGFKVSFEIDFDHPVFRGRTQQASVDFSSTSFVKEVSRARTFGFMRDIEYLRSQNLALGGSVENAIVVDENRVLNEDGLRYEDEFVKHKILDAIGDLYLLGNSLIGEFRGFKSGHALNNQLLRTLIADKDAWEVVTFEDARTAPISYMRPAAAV
Each record's class is read off its IC50 using these ranges: LOW: < 0.002 µM; MID: ≥ 0.002 µM and < 0.008 µM; HIGH: ≥ 0.008 µM

compound: CC(CO)(OCc1ccc(-c2cccc(F)c2)cc1)C(=O)NO (centres unmarked) [Example 64]
assigned_class: MID

compound: Cc1ccc(-c2ccc(CO[C@](C)(C(=O)NO)[C@@H](O)c3cc(CO)on3)cc2)nc1 [Example 40]
assigned_class: LOW

compound: Cc1cccc(-c2ccc(COC(C)(C(=O)NO)C(=O)NCc3cc(C)on3)cc2)n1 (centres unmarked) [Example 89]
assigned_class: HIGH

compound: CCOCC[C@H](O)[C@](C)(OCc1ccc(-c2ccccc2)cc1)C(=O)NO [Example 8]
assigned_class: HIGH

compound: Cc1cc(CNC(=O)C(C)(OCc2ccc(-c3ccc(-c4cc(CO)no4)cc3)cc2)C(=O)NO)no1 (centres unmarked) [Example 84]
assigned_class: LOW

compound: Cc1ccnc(-c2ccc(COC(C)(C(=O)NO)C(=O)NCc3cc(C)on3)cc2)c1 (centres unmarked) [Example 87]
assigned_class: MID

compound: C[C@@](OCc1ccc(-c2ccccc2)cc1)(C(=O)NO)[C@@H](O)C1CC1 [Example 15]
assigned_class: HIGH

compound: C[C@@](OCc1ccc(-c2ccccc2)cc1)(C(=O)NO)[C@@H](O)c1cc(-c2ccccc2)on1 [Example 28]
assigned_class: LOW

compound: C[C@@](OCc1ccc(-c2ccccc2)cc1)(C(=O)NO)[C@@H](O)c1ncco1 [Example 33]
assigned_class: MID

compound: CC(OCc1ccc(-c2ccccc2)cc1)(C(=O)NO)C(=O)NCc1ccncn1 (centres unmarked) [Example 71]
assigned_class: MID

compound: C[C@@](OCc1ccc(-c2ccccc2)cc1)(C(=O)NO)[C@@H](O)c1ccon1 [Example 31]
assigned_class: LOW

compound: C[C@@](OCc1ccc(-c2ccccc2)cc1)(C(=O)NO)[C@@H](O)c1cc(CO)on1 [Example 34]
assigned_class: LOW

compound: CC(=O)NCCNC(=O)C(C)(OCc1ccc(-c2ccccc2)cc1)C(=O)NO (centres unmarked) [Example 77]
assigned_class: MID

compound: C[C@@](OCc1ccc(-c2ccccc2)cc1)(C(=O)NO)[C@@H](O)c1ccoc1 [Example 22]
assigned_class: HIGH

compound: Cc1cc(CNC(=O)C(C)(OCc2ccc(-c3cnccn3)cc2)C(=O)NO)no1 (centres unmarked) [Example 90]
assigned_class: HIGH

compound: C[C@@H](O)[C@](C)(OCc1ccc(-c2ccccc2)cc1)C(=O)NO [Example 2b]
assigned_class: MID
